# experimental-target: T1, human beta-Klotho (KLB) (human, UniProt Q86Z14 53-997);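 further: Anti-KLB antibodies captured on anti-human Fc CM5 chip, KLB injected as analyte, 180 s association and 1800 s dissociation, fitted to 1:1 binding model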
# T1 construct: bought protein; also called human KLB
# T1 sequence (looked up): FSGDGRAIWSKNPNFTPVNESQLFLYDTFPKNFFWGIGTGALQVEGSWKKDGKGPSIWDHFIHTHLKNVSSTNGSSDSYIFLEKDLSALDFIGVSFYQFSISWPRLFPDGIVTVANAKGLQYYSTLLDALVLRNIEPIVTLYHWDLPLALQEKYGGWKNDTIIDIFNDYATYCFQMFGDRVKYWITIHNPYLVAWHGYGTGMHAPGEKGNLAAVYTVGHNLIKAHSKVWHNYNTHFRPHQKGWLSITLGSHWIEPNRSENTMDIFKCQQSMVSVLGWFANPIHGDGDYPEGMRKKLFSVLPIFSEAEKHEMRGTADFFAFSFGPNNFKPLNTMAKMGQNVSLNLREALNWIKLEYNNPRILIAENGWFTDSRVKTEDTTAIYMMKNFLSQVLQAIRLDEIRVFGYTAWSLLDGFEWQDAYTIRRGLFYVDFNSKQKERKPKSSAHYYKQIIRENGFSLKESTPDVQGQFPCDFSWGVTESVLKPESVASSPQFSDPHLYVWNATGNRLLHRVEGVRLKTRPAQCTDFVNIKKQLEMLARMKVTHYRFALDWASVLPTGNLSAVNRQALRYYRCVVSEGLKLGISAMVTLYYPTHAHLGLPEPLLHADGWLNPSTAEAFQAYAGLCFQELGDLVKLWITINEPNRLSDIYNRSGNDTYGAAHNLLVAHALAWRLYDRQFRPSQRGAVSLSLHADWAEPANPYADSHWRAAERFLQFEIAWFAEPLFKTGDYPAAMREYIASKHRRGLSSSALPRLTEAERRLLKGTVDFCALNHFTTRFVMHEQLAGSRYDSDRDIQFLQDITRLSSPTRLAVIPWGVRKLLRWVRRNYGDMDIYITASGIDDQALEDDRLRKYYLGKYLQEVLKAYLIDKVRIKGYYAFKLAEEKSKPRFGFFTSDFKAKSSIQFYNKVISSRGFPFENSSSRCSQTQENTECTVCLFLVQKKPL
# experimental-details: SPR
observation-type: koff (s⁻¹)

>>> assay_result("Ab0353 (antibody, IgG4, V domains shown, IgG4 PE) VH: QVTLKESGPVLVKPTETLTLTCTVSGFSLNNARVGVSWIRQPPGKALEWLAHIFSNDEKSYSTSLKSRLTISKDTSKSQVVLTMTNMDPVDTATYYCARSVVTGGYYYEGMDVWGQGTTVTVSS VL: SYVLTQPPSVSVAPGQTARITCGGSNIGSESVHWYQQKPGQAPVLVVYEESDRPSGIPERFSGSNSGNTATLTISRVEAGDEADYYCQVWEGASDHVVFGGGTKLTVLG")
0.00038
>>> assay_result("Ab0311 (antibody, IgG4, V domains shown, IgG4 PE) VH: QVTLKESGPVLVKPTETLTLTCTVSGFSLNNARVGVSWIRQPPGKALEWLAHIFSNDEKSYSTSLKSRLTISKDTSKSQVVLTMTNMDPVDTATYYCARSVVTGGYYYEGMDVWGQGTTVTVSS VL: SYVLTQPPSVSVAPGQTARITCGGNNIGSESVHWYQQKPGQAPVLVVYYESDRPSGIPERFSGSNSGNTATLTISRVEAGDEADYYCQVWDGESDHVVFGGGTKLTVLG")
0.0013
>>> assay_result("Ab0357 (antibody, IgG4, V domains shown, IgG4 PE) VH: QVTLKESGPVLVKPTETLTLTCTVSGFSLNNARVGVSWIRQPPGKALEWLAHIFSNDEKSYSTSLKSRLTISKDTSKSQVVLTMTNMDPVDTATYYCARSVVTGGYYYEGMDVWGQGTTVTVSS VL: SYVLTQPPSVSVAPGQTARITCGGSNIGSESVHWYQQKPGQAPVLVVYEASDRPSGIPERFSGSNSGNTATLTISRVEAGDEADYYCQVWEGSSDHVVFGGGTKLTVLG")
0.00185
>>> assay_result("Ab0204 (antibody, IgG4, V domains shown, IgG4 PE) VH: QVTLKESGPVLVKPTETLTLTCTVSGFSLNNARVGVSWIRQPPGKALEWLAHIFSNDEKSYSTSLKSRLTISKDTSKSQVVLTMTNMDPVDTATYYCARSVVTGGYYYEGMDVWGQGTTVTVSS VL: SYVLTQPPSVSVAPGQTARITCGGNNIGSESVHWYQQKPGQAPVLVVYDDSDRPSGIPERFSGSNSGNTATLTISRVEAGDEADYYCQVWTGNSDHVVFGGGTKLTVLG")
0.00133
>>> assay_result("Ab0308 (antibody, IgG4, V domains shown, IgG4 PE) VH: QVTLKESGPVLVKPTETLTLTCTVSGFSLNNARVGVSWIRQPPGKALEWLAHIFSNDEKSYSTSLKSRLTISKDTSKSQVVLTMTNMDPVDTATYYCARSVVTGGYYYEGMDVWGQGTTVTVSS VL: SYVLTQPPSVSVAPGQTARITCGGSNIGSESVHWYQQKPGQAPVLVVYYDSDRPSGIPERFSGSNSGNTATLTISRVEAGDEADYYCQVWDGESDHVVFGGGTKLTVLG")
0.0013

Where do the numbers come from? From patent US20220010021A1.
